IC50 values for the molecules below.
TGT: kinase-domain human PKCι (Homo sapiens)
Construct: Recombinant, kinase-domain human PKCι is expressed and purified in-house; made in house
ASSAY REMARKS: PKCι IC50 IMAP fluorescence polarisation assay, kinase-domain enzyme
Assay type: biochemical
CONDITION: kinase domain PKCi at 2 μM ATP; read-out: IC50 in IMAP assay against kinase domain PKCi (Activity)

Here is how some molecules turned out for IC50.
INSERT INTO results (molecule, readout_label, result) VALUES
  ('C[C@@H](N)CNc1nc(-c2ccncc2)nc2sc3c(c12)CCCCC3', 'IC50', '0.1 to 1 µM'),
  ('CC(C)C[C@@H](N)CNc1nc(-c2ccncc2)nc2sc3c(c12)CCCC3', 'IC50', '1 to 10 µM'),
  ('Cc1sc2nc(-c3ccncc3)nc(NC[C@@H](C)N)c2c1C', 'IC50', '1 to 10 µM'),
  ('CC[C@H](N)COc1nc(-c2ccncc2)nc2sc3c(c12)CCCC3', 'IC50', '1 to 10 µM'),
  ('C[C@@H]1CN(c2nc(-c3ccncc3)nc3sc4c(c23)CCCC4)C[C@H](C)N1', 'IC50', '1 to 10 µM'),
  ('N[C@H](COc1nc(-c2ccncc2)nc2sc3c(c12)CCCC3)CC1CCCCC1', 'IC50', '1 to 10 µM'),
  ('CC1CCc2c(sc3nc(-c4ccncc4)nc(NCCN)c23)C1 (stereo not drawn)', 'IC50', '0.1 to 1 µM'),
  ('N[C@H](COc1nc(-c2ccncc2)nc2sc3c(c12)CCCC3)c1ccccc1', 'IC50', '1 to 10 µM');

Continue with the molecule presented below.
Return the recorded IC50 value; entry: "C[C@H]1CN(c2nc(-c3ccncc3)nc3sc4c(c23)CCCC4)CCN1"
0.1 to 1 µM

###

TGT: kinase-domain human PKCι (Homo sapiens, UniProt P41743)
Construct: Recombinant, kinase-domain human PKCι is expressed and purified in-house; made in house
Sequence (P41743 254-522 limits assumed): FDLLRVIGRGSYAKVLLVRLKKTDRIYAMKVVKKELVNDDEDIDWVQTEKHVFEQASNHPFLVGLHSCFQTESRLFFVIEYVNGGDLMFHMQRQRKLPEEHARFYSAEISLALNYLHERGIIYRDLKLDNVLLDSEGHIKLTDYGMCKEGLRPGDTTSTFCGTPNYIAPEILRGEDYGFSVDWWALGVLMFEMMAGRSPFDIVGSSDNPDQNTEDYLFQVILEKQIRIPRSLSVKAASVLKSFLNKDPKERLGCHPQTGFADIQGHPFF
ASSAY REMARKS: PKCι IC50 IMAP fluorescence polarisation assay, kinase-domain enzyme
Format: biochemical
CONDITION: kinase domain PKCi at 2 μM ATP; read-out: IC50 in IMAP assay against kinase domain PKCi (Activity)
READOUT LABEL: IC50

INSERT INTO assay_data (structure, result) VALUES
  ('CSCC[C@@H](N)CNc1nc(-c2ccncc2)nc2sc3c(c12)CCCC3', '1 to 10 µM');

Return the recorded IC50 value; entry: "Brc1ccc(CN2CCN(c3nc(-c4ccncc4)nc4sc5c(c34)CCCC5)CC2)cn1"
10 to 40 µM

Return the recorded IC50 value; entry: "N[C@H](COc1nc(-c2ccncc2)nc2sc3c(c12)CCCC3)Cc1cccc2ccccc12"
1 to 10 µM

Return the recorded IC50 value; entry: "Cc1n[nH]c(C)c1-c1nc(N2CCNCC2)c2c3c(sc2n1)CCCC3"
0.1 to 1 µM

Return the recorded IC50 value; entry: "Clc1cccc(CN2CCN(c3nc(-c4ccncc4)nc4sc5c(c34)CCCC5)CC2)c1"
10 to 40 µM

###

TGT: full-length human PKCι (Homo sapiens)
Construct: Recombinant, full-length human PKCι expressed in Sf21 insect cells is also commercially available; purchased; host or cells: Sf21 insect cells
Sequence (P41743 whole entry): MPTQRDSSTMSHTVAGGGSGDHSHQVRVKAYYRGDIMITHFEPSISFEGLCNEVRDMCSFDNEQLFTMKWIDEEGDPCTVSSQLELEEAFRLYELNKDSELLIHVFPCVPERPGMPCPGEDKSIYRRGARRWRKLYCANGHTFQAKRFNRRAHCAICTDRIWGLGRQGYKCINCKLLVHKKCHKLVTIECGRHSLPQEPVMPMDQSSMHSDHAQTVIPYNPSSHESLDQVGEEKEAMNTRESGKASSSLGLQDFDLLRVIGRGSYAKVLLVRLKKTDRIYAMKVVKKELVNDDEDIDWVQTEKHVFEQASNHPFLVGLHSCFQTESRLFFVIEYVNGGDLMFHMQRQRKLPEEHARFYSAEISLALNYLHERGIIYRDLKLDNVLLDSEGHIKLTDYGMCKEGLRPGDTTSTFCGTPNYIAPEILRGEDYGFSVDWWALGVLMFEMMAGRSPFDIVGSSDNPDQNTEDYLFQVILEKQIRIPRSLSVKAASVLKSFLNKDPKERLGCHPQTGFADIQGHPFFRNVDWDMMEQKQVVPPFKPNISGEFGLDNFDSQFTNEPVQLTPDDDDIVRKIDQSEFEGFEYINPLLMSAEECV
ASSAY REMARKS: PKCι IC50 IMAP fluorescence polarisation assay, full-length enzyme
Format: biochemical
CONDITION: full length PKCi at 15 μM ATP; read-out: IC50 in IMAP assay against full length PKCi (Activity)
READOUT LABEL: IC50

Here is how some molecules turned out for IC50.
INSERT INTO measurements (molecule, result) VALUES
  ('COc1cccc(C[C@H](N)CNc2nc(-c3ccncc3)nc3sc4c(c23)CCCC4)c1 [compound 54]', '1 to 10 µM'),
  ('CCC(=O)N1CCc2c(sc3nc(-c4ccncc4)nc(NCCN)c23)C1 [compound 106]', '10 to 40 µM'),
  ('N[C@H](CNc1nc(-c2ccncc2F)nc2sc3c(c12)CCCC3)Cc1ccccc1 [compound 101]', '1 to 10 µM'),
  ('Cc1sc2c(NC[C@@H](N)Cc3ccccc3)nc(-c3ccncc3)nc2c1Br [compound 300]', '< 0.1 µM');

Continue with the molecule presented below.
Return the recorded IC50 value; entry: CCN1CCc2c(sc3nc(-c4ccncc4)nc(NCCN)c23)C1 [compound 112]
10 to 40 µM
